# TARGET OR TEST SYSTEM: T1, RADIL, Q96JH8
# T1 sequence (Q96JH8 971-1071, limits assumed, looked up): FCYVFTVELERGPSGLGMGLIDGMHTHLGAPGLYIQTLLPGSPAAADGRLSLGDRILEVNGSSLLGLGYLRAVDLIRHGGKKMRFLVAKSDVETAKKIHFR
# METHOD NOTES: holdup assay
# Set-up: key: below the threshold = too weak to quantify, mostly under pKd 3.1 to 4
# EXPERIMENTAL CONDITIONS: plain residues with an end cap or a label only (N-terminal biotin on a linker: ado-ado)
PROPERTY MEASURED: pKd

Examples with answers:
binder="GNSVLKSTQF [SLC22A12, Q96S37]" result="below the threshold"
binder="VRNLPESEEL [MYOZ3, Q8TDC0]" result="below the threshold"
binder="QGPVETESVV [SLC45A4, Q5BKX6]" result=4.05
binder="HLRARKSEWV [GJD4, Q96KN9]" result=4.85
binder="LPAHHNATRL [SLC34A1, Q06495;Q06495-1]" result="below the threshold"
binder="NHSSSPETTA [TRMT13, Q9NUP7]" result="below the threshold"

Task: // query pKd value for entry IPLDGETEEL [MYOZ1, Q9NP98]
Output: below the threshold

Task: Now try ETQVTAETVI [TMEM225B, P0DP42] .
Output: below the threshold

Task: Now try PEYLGLDVPV [ERBB2, P04626] .
Output: below the threshold

Task: Now try SKSNFGSEPL [KIF17, Q9P2E2] .
Output: below the threshold

Task: Now try LPHPHSTTRV [NLGN2, Q8NFZ4] .
Output: 3.87

Task: Now try EALLQMESVA [CAVIN3, Q969G5] .
Output: below the threshold
